Molecular target: AGTR1 (Homo sapiens, UniProt P30556)
Construct: host or cells: Pathunter CHO-K1 AGTR1 β-arrestin cell line (CHO-K1)
Sequence (P30556 whole entry): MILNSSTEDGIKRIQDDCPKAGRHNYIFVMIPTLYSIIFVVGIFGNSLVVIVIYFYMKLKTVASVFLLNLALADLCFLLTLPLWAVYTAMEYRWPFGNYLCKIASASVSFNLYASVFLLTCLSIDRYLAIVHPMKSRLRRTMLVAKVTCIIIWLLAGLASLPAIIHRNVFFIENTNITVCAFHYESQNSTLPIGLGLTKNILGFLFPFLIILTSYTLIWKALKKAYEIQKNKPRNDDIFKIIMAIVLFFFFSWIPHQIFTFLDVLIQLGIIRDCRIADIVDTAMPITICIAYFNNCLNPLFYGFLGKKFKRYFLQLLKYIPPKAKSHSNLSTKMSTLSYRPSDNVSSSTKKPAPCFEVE
Experiment: DiscoveRx β-arrestin2 recruitment assay (enzyme complementation, Pathunter CHO-K1 AGTR1 β-arrestin cell line)
Format: cell-based
Details: DiscoveRx β-arrestin2 recruitment
For each of the compounds below, state its pEC50.
Answers are plain numbers, as −log10 of the molar value.

For orientation, consider the following solved cases.
{"Compound": "CCCCC(=O)N(Cc1ccc(-c2cc(Oc3ccccc3)ccc2-c2nn[nH]n2)cc1)[C@H](C(=O)O)C(C)C [Example 435]", "Numeric value": 5.85}
{"Compound": "CCCCC1=NC2(CCCC2)C(=O)N1Cc1ccc(-c2cc(-c3cccc(F)c3F)ccc2-c2noc(=O)[nH]2)cc1 [Example 144]", "Numeric value": 7.91}
{"Compound": "CCc1nc2c(C)cc(C)nc2n1Cc1ccc(-c2cc(C3CCCCCC3)ccc2-c2nn[nH]n2)cc1 [Example 81]", "Numeric value": 7.42}
{"Compound": "CCCCC1=NC2(CCOCC2)C(=O)N1Cc1ccc(-c2cc(-c3ccccc3O)ccc2-c2nnn[nH]2)cc1 [Example 157]", "Numeric value": 7.52}

I would be grateful if you could provide pEC50 for each of the following entries.
1. CCCC1=NC2(CCOC2)C(=O)N1Cc1ccc(-c2cc(-c3ccccc3O)ccc2-c2nnn[nH]2)cc1 (single isomer, unassigned) [Example 164]
2. CCCCOC(=O)NS(=O)(=O)c1sc(-c2ccccc2)cc1-c1ccc(Cn2c(CC)nc3c(C)cc(C)nc32)cn1 [Example 50]

Reply text:
1: 7.12; 2: 7.96

Inquiry: Lab note: need pEC50 with AGTR1 (Homo sapiens, UniProt P30556) for entry CCc1nc2c(C)cc(C)nc2n1Cc1ccc(-c2cc(-c3cc(C)c(F)cn3)ccc2-c2nn[nH]n2)cc1 [Example 66] , please look it up.
Reply text: 8.24
